B1: TPR t1 (parent)
chain: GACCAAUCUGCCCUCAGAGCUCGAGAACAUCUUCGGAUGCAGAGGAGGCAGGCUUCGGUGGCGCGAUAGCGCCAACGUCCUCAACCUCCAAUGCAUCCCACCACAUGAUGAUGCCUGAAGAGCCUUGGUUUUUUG

- Variants of: B1
- EXPERIMENT_NOTES: polymerase ribozyme fitness, log enrichment relative to wild type (log ratio); higher = more active; in vitro selection for triplet polymerase activity
MEASURED_METRIC: polymerase ribozyme fitness (log ratio)
I only need the number, thanks.

U9G U30C G120C G127A : -3.41
C8U C12A G19U U59C G120A : -1.69
G48A C80U U96A C114U : -3.73
C12A A74G : -0.0689

Give recorded polymerase ribozyme fitness (log ratio). C102A A121U U131C 0.0525

Give recorded polymerase ribozyme fitness (log ratio). C8U A29G U112A -0.107

Give recorded polymerase ribozyme fitness (log ratio). A29G G69A A75U C104U U112G -4.35

Give recorded polymerase ribozyme fitness (log ratio). G63U A84C U130A -2.23

Hey, just so you know, these numbers are from the RNAGym collection of RNA variant scans (doi:10.1073/pnas.2313332121).
